Taken from patent US12692269B2.

For each entry below, report its TEAD1 TAZ HTRF combined: Max % Inhibition value.
Target under test: TEAD1 TAZ (amino acids 13-57) (Homo sapiens, UniProt P28347)
Sequence (P28347 167-426 limits assumed): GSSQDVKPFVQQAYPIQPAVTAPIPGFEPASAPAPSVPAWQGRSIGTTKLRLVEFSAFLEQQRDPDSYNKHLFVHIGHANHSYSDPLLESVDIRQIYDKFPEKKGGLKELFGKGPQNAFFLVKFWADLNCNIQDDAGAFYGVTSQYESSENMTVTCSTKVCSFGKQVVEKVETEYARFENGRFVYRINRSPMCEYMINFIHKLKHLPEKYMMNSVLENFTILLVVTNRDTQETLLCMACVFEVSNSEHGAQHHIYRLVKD
Assay details: TEAD1-TAZ HTRF (TR-FRET) protein-protein interaction assay
Type: binding
Study conditions: TEAD1, TAZ peptide, HTRF
Numbers only, in %.

Please go through the list and note TEAD1 TAZ HTRF combined: Max % Inhibition for each molecule.
1. C[C@H]1[C@@H](CF)CN1C(=O)c1c(C(=O)N(C)C)nn2c(=O)cc(-c3ccc(C4CCCCC4)cc3)[nH]c12
2. O=C(c1c(-c2ccccn2)nn2c(=O)cc(-c3ccc(C4CCCCC4)cc3)[nH]c12)N1CC(CF)C1
3. Cc1ccnc(-c2nn3c(=O)cc(-c4ccc(C5CCCCC5)cc4)[nH]c3c2C(=O)N2CC(CF)C2)c1C
4. O=C(c1nn2c(=O)cc(-c3ccc(C4CCCCC4)cc3)[nH]c2c1C(=O)N1CC(CF)C1)N1CCCC1

1. 62.0
2. 59.5
3. 71.5
4. 60.5

Given the entry C[C@@H](CO)c1nn2c(=O)cc(-c3ccc(C4CCCCC4)cc3)[nH]c2c1C(=O)N1CC(CF)C1 (single isomer, unassigned) [Enantiomer B, Example 55] , report its measured TEAD1 TAZ HTRF combined: Max % Inhibition.
45.5

====

I'd appreciate it if you could supply pEC50 values for the items below.
Target under test: TEAD2 YAP50-100 (Homo sapiens)
Sequence (Q15562 217-447): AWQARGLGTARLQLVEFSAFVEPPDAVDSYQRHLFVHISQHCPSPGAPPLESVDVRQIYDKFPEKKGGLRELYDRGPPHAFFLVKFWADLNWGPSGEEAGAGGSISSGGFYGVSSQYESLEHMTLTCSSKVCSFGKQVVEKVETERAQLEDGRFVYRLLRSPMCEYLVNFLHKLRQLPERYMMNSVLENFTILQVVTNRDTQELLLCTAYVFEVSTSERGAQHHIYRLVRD
Assay details: TEAD2-YAP HTRF (TR-FRET) protein-protein interaction assay
Study conditions: TEAD2, YAP peptide 50-100, HTRF; read-out: TEAD2 YAP50-100 HTRF combined: EC50
One number for each entry, as −log10 of the molar value.

Below: 5 molecules and their reported pEC50.
INSERT INTO measurements (molecule, reported_value) VALUES
  ('Cc1nccnc1-c1nn2c(=O)cc(-c3ccc(O[C@H](c4ccccc4)C(F)(F)F)cc3)[nH]c2c1C(=O)N1CC(CF)C1 [Compound 68]', 7.22),
  ('CC(C)c1ccc(COc2cc(=O)n3nc(-c4cnccn4)c(C(=O)N4CC(CF)C4)c3[nH]2)cc1 [Compound 52]', 7.70),
  ('CC(C)(C)c1ccc(COc2cc(=O)n3nc(-c4cnccn4)c(C(=O)N4CC(CF)C4)c3[nH]2)cc1 [Compound 53]', 7.70),
  ('O=C(c1c(-c2cnco2)nn2c(=O)cc(-c3ccc(C4CCCCC4)cc3)[nH]c12)N1CC(CF)C1 [Compound 39]', 7.70),
  ('CN(C)C(=O)c1nn2c(=O)cc(-c3cc(F)c(C4CCCCC4)c(F)c3)[nH]c2c1C(=O)N1CC(CF)C1 [Compound 3]', 8.00);

# per-item lookup of pEC50; items listed below
1. Cc1cncc(-c2nn3c(=O)cc(-c4ccc(C5CCCCC5)cc4)[nH]c3c2C(=O)N2CC(CF)C2)n1 [Compound 28]
2. Cc1nccnc1-c1nn2c(=O)cc(-c3ccc(C4CCC(F)(F)CC4)cc3)[nH]c2c1C(=O)N1CC(CF)C1 [Compound 55]

1: 7.70; 2: 7.22

====

Target under test: TEAD1 TAZ (amino acids 13-57) (Homo sapiens, UniProt P28347)
Assay details: TEAD1-TAZ HTRF (TR-FRET) protein-protein interaction assay
Type: binding
Study conditions: TEAD1-TAZ HTRF, TR-FRET 665 nm/615 nm; read-out: TEAD1 TAZ HTRF combined: EC50
Readout: EC50 (nM)
Give bare numbers, in nM.

The following compounds each have a reported value; give each one's EC50.
1. CC(C)(C)c1ccc(COc2cc(=O)n3nc(-c4ncccn4)c(C(=O)N4CC(CF)C4)c3[nH]2)cc1
2. CCc1ccnc(-c2nn3c(=O)cc(-c4ccc(C5CCCCC5)cc4)[nH]c3c2C(=O)N2CC(CF)C2)n1
3. C[C@H]1[C@@H](CF)CN1C(=O)c1c(-c2cnccn2)nn2c(=O)cc(-c3ccc(CC4CCCC4)cc3)[nH]c12 (single isomer, unassigned) [Isomer A, Example 44]
4. N#Cc1nccnc1-c1nn2c(=O)cc(-c3ccc(C4CCCCC4)cc3)[nH]c2c1C(=O)N1CC(CF)C1

1. 70
2. 110
3. 70
4. 110

====

Target under test: TEAD3 TAZ (amino acids 13-57) (Homo sapiens)
Assay details: TEAD3-TAZ HTRF (TR-FRET) protein-protein interaction assay
Type: binding
Study conditions: TEAD3-TAZ HTRF, TR-FRET 665 nm/615 nm; read-out: TEAD3 TAZ HTRF combined: EC50
pEC50: −log10 of the molar value.
Please use Criterion met whenever pEC50 is not below 7, and Criterion not met whenever it is.

Consider the following illustrative entries.
INSERT INTO results (molecule, class) VALUES
  ('CC(C)c1ccc(COc2cc(=O)n3nc(-c4cnccn4)c(C(=O)N4CC(CF)C4)c3[nH]2)cc1', 'Criterion not met'),
  ('CC1CCN1C(=O)c1nn2c(=O)cc(-c3ccc(C4CCCCC4)cc3)[nH]c2c1C(=O)N1CC(CF)C1 (single isomer, unassigned) [Enantiomer B, Example 33]', 'Criterion not met');

Okay, now this molecule:
Check this molecule for pEC50 at or above 7: C[C@H]1[C@@H](CF)CN1C(=O)c1c(-c2ncccn2)nn2c(=O)cc(-c3ccc(CC4CCCC4)cc3)[nH]c12 (single isomer, unassigned) [Isomer A, Example 43]
Criterion met

====

Target under test: TEAD4 TAZ (amino acids 13-57) (Homo sapiens, UniProt Q15561)
Sequence (Q15561 217-434 limits assumed): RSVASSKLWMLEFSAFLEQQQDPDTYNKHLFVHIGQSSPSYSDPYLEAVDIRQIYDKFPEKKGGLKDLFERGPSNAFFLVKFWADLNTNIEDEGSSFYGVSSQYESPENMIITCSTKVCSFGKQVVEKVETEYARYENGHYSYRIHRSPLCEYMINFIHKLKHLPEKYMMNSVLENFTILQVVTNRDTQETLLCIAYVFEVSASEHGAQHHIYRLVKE
Assay details: TEAD4-TAZ HTRF (TR-FRET) protein-protein interaction assay
Study conditions: TEAD4-TAZ HTRF, TR-FRET 665 nm/615 nm; read-out: TEAD4 TAZ HTRF combined: EC50
Would you kindly list EC50 for each of these compounds?
Answers are plain numbers, in nM.

Some compounds with known EC50 results, for comparison:
INSERT INTO measurements (line_notation, readout, reported_value) VALUES
  ('CN(C)C(=O)c1nn2c(=O)cc(-c3cc(F)c(C4CCCCC4)c(F)c3)[nH]c2c1C(=O)N1CC(CF)C1', 'EC50', 170),
  ('C[C@H]1[C@@H](CF)CN1C(=O)c1c(C(=O)N(C)C)nn2c(=O)cc(-c3ccc(C4CCCCC4)cc3)[nH]c12', 'EC50', 170),
  ('Cc1nccnc1-c1nn2c(=O)cc(-c3ccc(C4CCCCC4)cc3)[nH]c2c1C(=O)N1CC(CF)C1', 'EC50', 30),
  ('CN(C)C(=O)c1nn2c(=O)cc(-c3ccc(C4CCCCC4)cc3)[nH]c2c1C(=O)N1CC(CF)C1', 'EC50', 600),
  ('O=C(c1c(-c2ccccc2)nn2c(=O)cc(-c3ccc(C4CCCCC4)cc3)[nH]c12)N1CC(CF)C1', 'EC50', 130);

Below are 2 compounds. Give each one its EC50.
1. O=C(c1c(-c2cnco2)nn2c(=O)cc(-c3ccc(C4CCCCC4)cc3)[nH]c12)N1CC(CF)C1
2. Cc1nccnc1-c1nn2c(=O)cc(-c3ccc(C(F)(F)C4CCCC4)cc3)[nH]c2c1C(=O)N1CC(CF)C1

1. 370
2. 20

====

What TEAD3 TAZ HTRF combined: Max % Inhibition was measured for each of the following?
Target under test: TEAD3 TAZ (amino acids 13-57) (Homo sapiens, UniProt Q99594)
Sequence (Q99594 173-435 limits assumed): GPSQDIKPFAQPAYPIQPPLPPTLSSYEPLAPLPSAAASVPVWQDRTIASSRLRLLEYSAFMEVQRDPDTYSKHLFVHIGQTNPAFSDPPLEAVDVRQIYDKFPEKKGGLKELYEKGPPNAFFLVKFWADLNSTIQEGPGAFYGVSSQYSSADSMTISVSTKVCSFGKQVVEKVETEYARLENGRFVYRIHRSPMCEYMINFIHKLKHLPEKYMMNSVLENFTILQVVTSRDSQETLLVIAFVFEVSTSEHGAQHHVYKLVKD
Assay details: TEAD3-TAZ HTRF (TR-FRET) protein-protein interaction assay
Assay type: binding
Study conditions: TEAD3, TAZ peptide, HTRF
Numbers only, in %.

Example results:
INSERT INTO results (molecule, unit_descriptor, reported_value) VALUES
  ('O=C(c1c(C2CNCCO2)nn2c(=O)cc(-c3ccc(C4CCCCC4)cc3)[nH]c12)N1CC(CF)C1 (single isomer, unassigned) [Enantiomer B, Example 63]', '%', 52.0),
  ('CN(C)C(=O)c1nn2c(=O)cc(-c3ccc(C4CCCCC4)cc3)[nH]c2c1C(=O)N1CC(CF)C1 [Compound 1]', '%', 63.0),
  ('Cc1nccnc1-c1nn2c(=O)cc(-c3ccc(C4(F)CCCCC4)cc3)[nH]c2c1C(=O)N1CC(CF)C1 [Compound 59]', '%', 59.0),
  ('C[C@H]1[C@@H](CF)CN1C(=O)c1c(-c2cnccn2)nn2c(=O)cc(-c3ccc(C4CCCCC4)cc3)[nH]c12 (single isomer, unassigned) [Isomer A, Example 39]', '%', 69.5),
  ('O=C(c1c(-c2ncccn2)nn2c(=O)cc(-c3ccc(C4CCCCC4)cc3)[nH]c12)N1CC(CF)C1 [Compound 15]', '%', 55.8);

Continue with the molecule presented below.
Form field: reported TEAD3 TAZ HTRF combined: Max % Inhibition of Cc1cnc(-c2nn3c(=O)cc(-c4ccc(C5CCCCC5)cc4)[nH]c3c2C(=O)N2CC(CF)C2)cn1 [Compound 26]
60.0
